System: Plasmodium falciparum Sir2 (PF13_0152, Sir2A)
Assay: pfSir2 binders on small-molecule microarrays, primary screen, biochemical, small-molecule microarray, 635 nm fluorescence (AID 1098);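 further: score merges spot fluorescence intensity with its signal-to-noise ratio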
Conditions: small-molecule microarray binding, fluorescence 635 nm; higher = more signal
# cutoff 0.8 applies to composite z-score; >= gives Met, < gives Not met

COc1ccc(C(O)C2C=CC3C(=O)N(C)C(=O)C3N2N2CCCCC2)cc1OCc1ccccc1 (stereo unspecified); Not met
C[N+](C)(C)CCCCNC(=O)[C@@H]1C[C@@H]2C(=O)N3CCC[C@H]3C(=O)N2[C@@H]1c1cccc(OCCO)c1; Not met

Query :: # check: composite z-score of COc1cc2c(cc1OC)CN(C(=O)[C@@H]1[C@H]3C(=O)O[C@H](c4ccccc4)[C@H](c4ccccc4)N3[C@H](c3ccccc3OCCO)[C@@]13C(=O)Nc1ccccc13)CC2 is greater than or equal to 0.8
Result :: Met

Query :: # check: composite z-score of C=CC(=O)O[C@@H](Cc1ccccc1)[C@H]1C2C=CCCC=C2CN1Cc1cccc(Cl)c1 (stereo partly specified) is greater than or equal to 0.8
Result :: Not met

Query :: # check: composite z-score of C=CCC(OC(C)=O)[C@@H]1[C@@H](N(Cc2cc3ccccc3o2)C(=O)Cc2ccc(F)cc2)c2cc(OCCCO)ccc2N1C(=O)c1ccc(-c2ccccc2)cc1 (stereo partly specified) is greater than or equal to 0.8
Result :: Not met

All values here come from PubChem BioAssay.
